# System Name: cynomolgus monkey DLL4 extracellular domain (cynomolgus monkey)
# Test Details: Biacore SPR
Assay Endpoint: kon (M⁻¹ s⁻¹)

[[record]]
binder = "h1A11.A8 (antibody, V domains shown) VH: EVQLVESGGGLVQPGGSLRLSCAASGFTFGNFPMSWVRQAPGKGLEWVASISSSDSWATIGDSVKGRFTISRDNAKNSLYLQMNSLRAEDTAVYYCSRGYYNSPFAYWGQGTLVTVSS VL: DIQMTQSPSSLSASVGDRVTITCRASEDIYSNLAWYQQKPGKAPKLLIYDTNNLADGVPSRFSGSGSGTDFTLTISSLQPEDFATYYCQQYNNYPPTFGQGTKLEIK"
assay_endpoint = "kon"
numeric_value = 160000

[[record]]
binder = "14G1 rat monoclonal antibody (antibody, V domains shown) VH: EVQLQQSGAELAKPGSSVKISCKASGYTFTNYDISWIKQTNGQGLEYLGYINTGSGGIYSNEKFKGKATLTVDKSSNTAFMQLSSLTPEDTAVYYCVREGNNFDHWGQGVKVTVSS VL: DTVMTQSPASMSTSVGERVTVNCKASQSVGTIVAWFQQKPGQSPKRLIYLATYRHTGVPDRFIGSGFGRDFTLTISNVEAEDLAVYYCLQYGSRPFTFGAGTKLEIKR"
assay_endpoint = "kon"
numeric_value = 39000

[[record]]
binder = "h1A11.1 (antibody, V domains shown) VH: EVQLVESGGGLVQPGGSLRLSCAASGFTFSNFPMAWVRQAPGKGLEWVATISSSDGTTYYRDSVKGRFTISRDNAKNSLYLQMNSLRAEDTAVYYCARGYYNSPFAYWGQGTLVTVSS VL: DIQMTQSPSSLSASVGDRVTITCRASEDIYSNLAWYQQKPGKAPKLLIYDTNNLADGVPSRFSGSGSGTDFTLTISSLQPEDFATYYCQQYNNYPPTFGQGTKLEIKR"
assay_endpoint = "kon"
numeric_value = 144000

